Data provenance: the CheMixHub drug solubility set

assay: xn = mol fraction of the nth substance listed, in the solute-free solvent; conditions: 298.15 K; x2 = 0.5
Respond with satisfied for solubility (g/100 g solution) values of 0.6 and above, not satisfied for values below.

{"compound": "O=c1ccc2ccccc2o1 + CC(C)=O + O", "cat": "satisfied"}
{"compound": "CN1CCN(C(=O)OC2c3nccnc3C(=O)N2c2ccc(Cl)cn2)CC1 (stereo unspecified) + CC#N + O", "cat": "satisfied"}
{"compound": "O=c1ccc2ccccc2o1 + CO + O", "cat": "satisfied"}
{"compound": "CC1(C)SC2C(NC(=O)C(NC(=O)N3CCNC3=O)c3ccccc3)C(=O)N2C1C(=O)O (stereo unspecified) + CCO + CC(C)O", "cat": "not satisfied"}
{"compound": "CN1CCN(C(=O)OC2c3nccnc3C(=O)N2c2ccc(Cl)cn2)CC1 (stereo unspecified) + CCO + O", "cat": "satisfied"}
{"compound": "CN1CCN(C(=O)OC2c3nccnc3C(=O)N2c2ccc(Cl)cn2)CC1 (stereo unspecified) + CC(C)=O + O", "cat": "satisfied"}
